# target_of_assay: T1, mouse Ang-1 (mouse, UniProt O08538)
# T1 chain: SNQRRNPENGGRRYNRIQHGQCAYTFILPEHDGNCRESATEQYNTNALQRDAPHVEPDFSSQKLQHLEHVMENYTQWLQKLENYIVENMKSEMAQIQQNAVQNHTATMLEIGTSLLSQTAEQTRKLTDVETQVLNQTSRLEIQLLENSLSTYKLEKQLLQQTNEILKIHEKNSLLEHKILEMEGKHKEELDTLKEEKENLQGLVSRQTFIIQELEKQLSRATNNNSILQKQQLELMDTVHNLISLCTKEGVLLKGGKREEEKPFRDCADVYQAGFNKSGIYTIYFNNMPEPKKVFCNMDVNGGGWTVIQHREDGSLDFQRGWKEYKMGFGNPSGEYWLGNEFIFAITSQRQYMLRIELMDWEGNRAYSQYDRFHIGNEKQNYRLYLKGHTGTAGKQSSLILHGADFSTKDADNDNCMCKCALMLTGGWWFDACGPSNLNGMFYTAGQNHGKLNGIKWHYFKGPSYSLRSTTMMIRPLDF
# experimental_protocol: competition ELISA vs Tie-2
Primed or numbered codes have the meaning given here. Where no end group is shown, it is not given here. [ ]: non-standard residue; d: D form. Fc = immunoglobulin Fc domain fused to the peptide (peptibody); Fc″ = Fc domain of the peptibody fusion
experimental_endpoint: IC50

Some solved entries appear below for comparison.
>>> result("MGAQTNFMPMDDLEQRLYEQFILQQGLEGGGGG-Fc [L1-7 (N)]")
"> 1000 nM"
>>> result("MGAQHTFQPLDELEETLYYQWLYDQLLEGGGGG-{Fc″} [L1-21 (N)]")
"> 1000 nM"

Next up:
Tell me the measured IC50 of M[Fc]GGGGGAQQEECEWDPWTCEHMLE (not fully specified (bridges); printed as M-Fc-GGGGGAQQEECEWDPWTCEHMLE; cysteine pairing not given here; also: Fc fusion domain at position 2) [Con4 (C)] , please.
300 nM
